Form field: GI50 (one value per entry).
- System: RXF 393
- Assay details: NCI tumour cell line growth inhibition, 48 h
The source made the active and inactive calls. Rule as the data show it: active = GI50 up to about 1.1 µM and inactive = higher.

So what does the record say about GI50 for CC1(C)[C@@H](Cn2nnc3c(N)ncnc32)CC[C@@]1(C)CO ? > 100 µM (inactive)

Param item = CNC(C)Cc1ccc(O)cc1 (stereo not given) ; retrieve measured GI50. > 100 µM (inactive)

----------
Overview of recorded GI50 for various compounds
- Test system: EKVX
- Assay details: NCI tumour cell line growth inhibition, 48 h
Active and inactive are the calls of the source. No stated cut-off is given here; in the data, active = GI50 up to about 1.1 µM and inactive = higher.

For orientation, consider the following solved cases.
Compound | Endpoint result
COc1cc(C(C)c2cc3c(cc2OCCCCOc2cc4c(cc2C(C)c2cc(OC)c(OC)c(OC)c2)OCO4)OCO3)cc(OC)c1OC (stereo not drawn) | 40.5 µM (inactive)
C=C(CCCCCCCCC)CC(=O)SCCNC(=O)CCNC(=O)C(O)C(C)(C)COP(=O)(O)OP(=O)(O)OCC1OC(n2cnc3c(N)ncnc32)C(O)C1OP(=O)(O)O (stereo not drawn) | 51.2 µM (inactive)
Cc1ccc(NS(=O)(=O)c2cc(C(C)(C)C)ccc2OCCOCCOCCOc2ccc(C(C)(C)C)cc2S(=O)(=O)Nc2ccc(C)cc2)cc1 | > 100 µM (inactive)
CCOC(=O)CCC(C(=O)OCC)n1nnc2ccc(Nc3c(C)[n+]([O-])c4ccc(Cl)cc4[n+]3[O-])cc21 (stereo not drawn) | 17.1 µM (inactive)
Cc1ccc(NC(=O)CC/C(CC(=O)C(C)(C)C)=N/NC(=O)c2cc3ccccc3cc2O)cc1C | 36.5 µM (inactive)
NCCCN1CCN(CC(=O)O)CCN(CCCN)CCN(CC(=O)O)CC1 | > 77.6 µM (inactive)
C[C@]12CCC3c4ccc(OC(=O)c5ccccc5)cc4CC[C@H]3C1CC[C@@H]2OC(=O)C12OC1CCC2=O (stereo partly drawn) | 6.61 µM (inactive)

Consider the record given below.
Given the compound CC1(C(=O)O)CCC2(C)CCC3(C)C(=CC(=O)C4C5(C)CCC(O)C(C)(C)C5CCC43C)C2C1 (stereo not drawn) , what is its reported GI50? 34.9 µM (inactive)

----------
- System: SK-MEL-2
- Assay details: NCI tumour cell line growth inhibition, 48 h
Activity calls are given as the source filed them. Cut-off read from the data, not from the text of the source: active = GI50 up to about 1.1 µM and inactive = higher.
Could you please pick one outcome from this set? true (1) (active), false (0) (inactive)

Compound | Qualitative label
O=C1Nc2ccccc2/C1=N/NC(=S)N1CCCC1 | false (0)
COc1cc2c(cc1OC)CC1c3cc(OC)c(OC)cc3CCN1CC2 (stereo not given) | false (0)
Cc1ccc(/N=N/c2c(O)ccc3cc(S(=O)(=O)O)ccc23)cc1 | false (0)
NCCCC[C@H](N)C(=O)Nc1ccc(-c2nc3ccccc3s2)cc1Cl | false (0)

Okay, next one:
Hey, what did the test say about COc1cccc(-c2cc(=O)c3cc(N4CCCCC4)ccc3[nH]2)c1 ? true (1)

----------
Overview of reported GI50 across a group of compounds:
- System: ACHN
- Assay details: NCI tumour cell line growth inhibition, 48 h
Active and inactive are the calls of the source. Rule as the data show it: active = GI50 up to about 1.1 µM and inactive = higher.

Compound | GI50
OC1CN2CCS[C@H]2C(O)C1O (stereo not given in full) | > 100 µM (inactive)
CC1=NN(c2nc(N)nc(CSCc3nc(N)nc(N(C)C)n3)n2)C(C)(C)C1 | > 100 µM (inactive)
COc1ccc(C2NC(N)=C(C#N)C3=C2C(C)CCC3)cc1OC (stereo not given) | 32.3 µM (inactive)
COc1cccc(-c2cc(=O)c3cc(N4CCCCC4)ccc3[nH]2)c1 | < 0.0186 µM (active)

Find GI50 (ACHN) for the entry COc1cc2c[n+](C)c3c4cc(OC)c(OC)cc4ccc3c2cc1OC > 100 µM (inactive)

Hello, I am looking for reported GI50 with ACHN for COc1cccc(-c2nccc3c(OCc4ccccc4)c(OC)c(OC)cc23)c1 . Could you help? 54.6 µM (inactive)

Requested read-out GI50, target or system ACHN, entry CCOC(O)(NC(=O)C(C(F)(F)F)C(F)(F)F)C(F)(F)F (stereo not given) > 100 µM (inactive)

State its GI50 on ACHN: Clc1ccc(-c2nn3c(-c4ccncc4)nnc3s2)cc1 61 µM (inactive)

# returns recorded GI50 (system: ACHN) for Nc1ccc2nc3n(c2c1)C(c1c(F)cccc1F)SC3 (stereo not given) > 100 µM (inactive)

Could you share what GI50 was measured for C=C(C)C(O)C(O)C[C@@H](C)C1CC[C@]23C[C@]12CCC1[C@@]2(C)CCC(OC(C)=O)C(C)(C)C2CC(OC2OC(CO)C(O)C(O)C2O)[C@]13C (stereo not given in full) , tested on ACHN? 31.6 µM (inactive)

Data origin: ChEMBL document CHEMBL1201862
